experiment: Cell viability (CCK-8), cytotoxicity; conditions: human, THP1 cells, Cell viability (Fig. S7a), XQ2 80000 nM
Square brackets hold non-standard residues; d marks the D form. Peptide text beside a SMILES is read from it.
attributeMeasured: viability at 48 h, 80 µM (%)
Field format: number, assumed %, no unit text.

## Input Reported viability at 48 h, 80 µM, molecule CC(C)C[C@@H]1NC(=O)[C@H](CCCNC(=N)N)NC(=O)[C@H](C(C)C)NC(=O)[C@@H]2CCCN2C(=O)[C@@H](Cc2ccccc2)NC(=O)[C@H](CC(C)C)NC(=O)[C@H](CCCNC(=N)N)NC(=O)[C@H](C(C)C)NC(=O)[C@H](C)NC(=O)[C@@H](Cc2ccccc2)NC1=O [XQ2, Cyclo (LfAVRLfPVR)] (cyclo(L[dF]AVRL[dF]PVR)) : ____
## Output 6.79

----------
test: Cell viability (CCK-8), cytotoxicity; conditions: human, THP1 cells, Cell viability (Fig. S7a), XQ2 160000 nM
Square brackets hold non-standard residues; d marks the D form. Peptide text beside a SMILES is read from it.
attributeMeasured: viability at 48 h, 160 µM (%)
Field format: number, assumed %, no unit text.

## Input Reported viability at 48 h, 160 µM, compound CC(C)C[C@@H]1NC(=O)[C@H](CCCNC(=N)N)NC(=O)[C@H](C(C)C)NC(=O)[C@@H]2CCCN2C(=O)[C@@H](Cc2ccccc2)NC(=O)[C@H](CC(C)C)NC(=O)[C@H](CCCNC(=N)N)NC(=O)[C@H](C(C)C)NC(=O)[C@H](C)NC(=O)[C@@H](Cc2ccccc2)NC1=O [XQ2, Cyclo (LfAVRLfPVR)] (cyclo(L[dF]AVRL[dF]PVR)) : ____
## Output 6.84

----------
assay: in vitro; settings: mouse, RAW264.7 cells, Cell viability (Fig. S2e), RAW264.7 (48h), XQ2 5 μM
Square brackets hold non-standard residues; d marks the D form. Peptide text beside a SMILES is read from it.
attributeMeasured: viability at 48 h, 5 µM (%)
Field format: number, assumed %, no unit text.

## Input Reported viability at 48 h, 5 µM, compound CC(C)C[C@@H]1NC(=O)[C@H](CCCNC(=N)N)NC(=O)[C@H](C(C)C)NC(=O)[C@@H]2CCCN2C(=O)[C@@H](Cc2ccccc2)NC(=O)[C@H](CC(C)C)NC(=O)[C@H](CCCNC(=N)N)NC(=O)[C@H](C(C)C)NC(=O)[C@H](C)NC(=O)[C@@H](Cc2ccccc2)NC1=O [XQ2, Cyclo (LfAVRLfPVR)] (cyclo(L[dF]AVRL[dF]PVR)) : ____
## Output 102

----------
assay: in vitro; conditions: human, THP1 cells, Cell viability (Fig. S7a)
Square brackets hold non-standard residues; d marks the D form. Peptide text beside a SMILES is read from it.
attributeMeasured: viability at 48 h, 400 µM (%)
Field format: number, assumed %, no unit text.

## Input Reported viability at 48 h, 400 µM, compound CC(C)C[C@@H]1NC(=O)[C@H](CCCNC(=N)N)NC(=O)[C@H](C(C)C)NC(=O)[C@@H]2CCCN2C(=O)[C@@H](Cc2ccccc2)NC(=O)[C@H](CC(C)C)NC(=O)[C@H](CCCNC(=N)N)NC(=O)[C@H]([C@@H](C)O)NC(=O)[C@H](C)NC(=O)[C@@H](Cc2ccccc2)NC1=O [XQ2B] (cyclo([dF]ATRL[dF]PVRL)) : ____
## Output 3.62
